Sourced from paper PMC6261661

Each record here notes measured mMC5R fold less potent than peptide 1.
# measurement_target: mMC5R (Mus musculus)
# Sequence (P41149 whole entry): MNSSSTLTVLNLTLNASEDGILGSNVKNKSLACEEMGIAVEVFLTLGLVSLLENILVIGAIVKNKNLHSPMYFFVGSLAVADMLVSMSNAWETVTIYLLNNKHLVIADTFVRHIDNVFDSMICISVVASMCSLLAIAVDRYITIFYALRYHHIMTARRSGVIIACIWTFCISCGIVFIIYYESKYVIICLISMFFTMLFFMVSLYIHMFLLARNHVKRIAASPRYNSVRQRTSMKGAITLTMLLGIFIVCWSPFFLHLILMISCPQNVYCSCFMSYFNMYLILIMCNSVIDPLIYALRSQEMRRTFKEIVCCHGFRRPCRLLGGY
# measurement_description: CRE/β-galactosidase reporter gene bioassay, agonist activity at mMC5R
# Format: cell-based
# condition_parameters: less potent than 1
Square brackets hold non-standard residues; d marks the D form. Peptide text beside a SMILES is read from it. dPhe(4-I) = N[C@H](Cc1ccc(I)cc1)C(=O)O; 2Thi = N[C@@H](Cc1cccs1)C(=O)O

QUERY: Record request: mMC5R fold less potent than peptide 1 value, item CC(=O)N[C@@H](Cc1cccs1)C(=O)N[C@H](Cc1ccc(I)cc1)C(=O)N[C@@H](CCCNC(=N)N)C(=O)N[C@@H](Cc1c[nH]c2ccccc12)C(N)=O [Peptide 14, Ac-2Thi-(pI)DPhe-Arg-Trp-NH2] (Ac-[2Thi][dPhe(4-I)]RW-NH2)
RESULT: 11- to 25 fold

---
QUERY: Value lookup for mMC5R fold less potent than peptide 1; key = CC(=O)N[C@@H](Cc1ccccc1)C(=O)N[C@H](Cc1ccc(I)cc1)C(=O)N[C@@H](CCCNC(=N)N)C(=O)N[C@@H](Cc1c[nH]c2ccccc12)C(N)=O [Peptide 15, Ac-Phe-(pI)DPhe-Arg-Trp-NH2] (Ac-F[dPhe(4-I)]RW-NH2)
RESULT: 11- to 25 fold

###

# measurement_target: mMC4R (Mus musculus)
# Sequence (P56450 whole entry): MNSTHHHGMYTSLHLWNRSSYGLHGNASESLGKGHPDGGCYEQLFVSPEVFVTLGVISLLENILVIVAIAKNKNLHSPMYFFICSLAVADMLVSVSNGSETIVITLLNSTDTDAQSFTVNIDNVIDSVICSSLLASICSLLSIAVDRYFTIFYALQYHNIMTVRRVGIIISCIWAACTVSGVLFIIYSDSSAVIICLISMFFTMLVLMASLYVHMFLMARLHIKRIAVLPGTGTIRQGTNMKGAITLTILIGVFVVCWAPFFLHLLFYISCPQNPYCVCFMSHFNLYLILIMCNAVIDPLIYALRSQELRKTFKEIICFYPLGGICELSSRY
# measurement_description: CRE/β-galactosidase reporter gene bioassay, agonist activity at mMC4R
# Format: cell-based
# condition_parameters: fold difference in EC50 vs peptide 1; negative prefix = more potent than 1
Square brackets hold non-standard residues; d marks the D form. Peptide text beside a SMILES is read from it. * marks the point of attachment. dBip = N[C@H](Cc1ccc(-c2ccccc2)cc1)C(=O)O; dPhe(4-I) = N[C@H](Cc1ccc(I)cc1)C(=O)O; 1Nal = N[C@@H](Cc1cccc2ccccc12)C(=O)O; 2Nal = N[C@@H](Cc1ccc2ccccc2c1)C(=O)O; d1Nal = N[C@H](Cc1cccc2ccccc12)C(=O)O; d2Nal = N[C@H](Cc1ccc2ccccc2c1)C(=O)O; Bta = N[C@@H](Cc1csc2ccccc12)C(=O)O; Tic = O=C(O)[C@@H]1Cc2ccccc2CN1; 2Thi = N[C@@H](Cc1cccs1)C(=O)O; Octanoyl = CCCCCCCC(=O)*
quantity_kind: mMC4R Fold Diff.
Lab note: record just the number, no unit beside it.

Solved cases (6 shown):
QUERY: Could you tell me which mMC4R Fold Diff. is on file for CC(=O)N[C@@H](Cc1c[nH]cn1)C(=O)N[C@H](Cc1ccc(I)cc1)C(=O)N[C@@H](CCCNC(=N)N)C(=O)N1Cc2ccccc2C[C@H]1C(N)=O [Peptide 31, Ac-His-(pI)DPhe-Arg-Tic-NH2] (Ac-H[dPhe(4-I)]R[Tic]-NH2) ?
RESULT: 46

QUERY: # query: mMC4R Fold Diff. of entry CC(=O)N[C@@H](Cc1c[nH]c2ccccc12)C(=O)N[C@H](Cc1ccccc1)C(=O)N[C@@H](CCCNC(=N)N)C(=O)N[C@H](Cc1ccc2ccccc2c1)C(N)=O [Peptide 26, Ac-Trp-DPhe-Arg-DNal(2’)-NH2] (Ac-W[dF]R[d2Nal]-NH2)
RESULT: 310

QUERY: # mMC4R Fold Diff. lookup, item CC(=O)N[C@@H](Cc1c[nH]c2ccccc12)C(=O)N[C@H](Cc1ccccc1)C(=O)N[C@@H](CCCNC(=N)N)C(=O)N[C@@H](Cc1cccc2ccccc12)C(N)=O [Peptide 24, Ac-Trp-DPhe-Arg-Nal(1’)-NH2] (Ac-W[dF]R[1Nal]-NH2)
RESULT: 77

QUERY: Requested read-out: mMC4R Fold Diff.. Entry: CC(=O)N[C@@H](Cc1ccccc1)C(=O)N[C@H](Cc1ccc(-c2ccccc2)cc1)C(=O)N[C@@H](CCCNC(=N)N)C(=O)N[C@@H](Cc1c[nH]c2ccccc12)C(N)=O [Peptide 20, Ac-Phe-DBip-Arg-Trp-NH2] (Ac-F[dBip]RW-NH2)
RESULT: 395

QUERY: I have this compound here, CC(=O)N[C@@H](Cc1c[nH]cn1)C(=O)N[C@H](Cc1ccc(-c2ccccc2)cc1)C(=O)N[C@@H](CCCNC(=N)N)C(=O)N[C@@H](Cc1ccc2ccccc2c1)C(N)=O [Peptide 36, Ac-His-DBip-Arg-Nal(2’)-NH2] (Ac-H[dBip]R[2Nal]-NH2) , and I need its recorded mMC4R Fold Diff..
RESULT: 4

QUERY: Which mMC4R Fold Diff. value belongs to CC(=O)N[C@@H](Cc1cccs1)C(=O)N[C@H](Cc1ccccc1)C(=O)N[C@@H](CCCNC(=N)N)C(=O)N[C@@H](Cc1ccc2ccccc2c1)C(N)=O [Peptide 28, Ac-2Thi-DPhe-Arg-Nal(2’)-NH2] (Ac-[2Thi][dF]R[2Nal]-NH2) ?
RESULT: 33

Others:
QUERY: Fill in: mMC4R Fold Diff. of CCCCCCCC(=O)N[C@@H](Cc1c[nH]c2ccccc12)C(=O)N[C@H](Cc1ccccc1)C(=O)N[C@@H](CCCNC(=N)N)C(=O)N[C@@H](Cc1c[nH]c2ccccc12)C(N)=O [Peptide 10, Octanoyl-Trp-DPhe-Arg-Trp-NH2] (Octanoyl-W[dF]RW-NH2) is ___
RESULT: 13

QUERY: Which mMC4R Fold Diff. value is on record for CC(=O)N[C@@H](Cc1cccs1)C(=O)N[C@H](Cc1ccccc1)C(=O)N[C@@H](CCCNC(=N)N)C(=O)N[C@@H](Cc1csc2ccccc12)C(N)=O [Peptide 27, Ac-2Thi-DPhe-Arg-3Bal-NH2] (Ac-[2Thi][dF]R[Bta]-NH2) ?
RESULT: 91

QUERY: Using the record for CCCCCCCC(=O)N[C@@H](Cc1c[nH]cn1)C(=O)N[C@H](Cc1ccc(-c2ccccc2)cc1)C(=O)N[C@@H](CCCNC(=N)N)C(=O)N[C@@H](Cc1c[nH]c2ccccc12)C(N)=O [Peptide 7, Octanoyl-His-DBip-Arg-Trp-NH2] , report its mMC4R Fold Diff..
RESULT: 36

QUERY: Item under review: CCCCCCCC(=O)N[C@@H](Cc1c[nH]cn1)C(=O)N[C@H](Cc1ccccc1)C(=O)N[C@@H](CCCNC(=N)N)C(=O)N1Cc2ccccc2C[C@H]1C(N)=O [Peptide 4, Octanoyl-His-DPhe-Arg-Tic-NH2] (Octanoyl-H[dF]R[Tic]-NH2) . Reported mMC4R Fold Diff.?
RESULT: 120

QUERY: Bench note: what mMC4R Fold Diff. did CC(=O)N[C@@H](Cc1c[nH]c2ccccc12)C(=O)N[C@H](Cc1cccc2ccccc12)C(=O)N[C@@H](CCCNC(=N)N)C(=O)N[C@@H](Cc1c[nH]c2ccccc12)C(N)=O [Peptide 19, Ac-Trp-DNal(1’)-Arg-Trp-NH2] (Ac-W[d1Nal]RW-NH2) show?
RESULT: 870

QUERY: GET /values?readout=mMC4R Fold Diff.&item= CC(=O)N[C@@H](Cc1c[nH]c2ccccc12)C(=O)N[C@H](Cc1ccccc1)C(=O)N[C@@H](CCCNC(=N)N)C(=O)N[C@@H](Cc1csc2ccccc12)C(N)=O [Peptide 25, Ac-Trp-DPhe-Arg-3Bal-NH2] (Ac-W[dF]R[Bta]-NH2)
RESULT: 576
